target: Perilipin-5 (Homo sapiens) + 1-acylglycerol-3-phosphate O-acyltransferase ABHD5 (Homo sapiens) (UniProt Q00G26+Q8WTS1); experiment: blockers of ABHD5 binding to perilipin-5 – cell lysate, luminescence, proteins expressed in HEK293T, late-stage follow-up (AID 651759); settings: ABHD5-PLIN5 interaction
Sequence (Q00G26 whole entry, looked up): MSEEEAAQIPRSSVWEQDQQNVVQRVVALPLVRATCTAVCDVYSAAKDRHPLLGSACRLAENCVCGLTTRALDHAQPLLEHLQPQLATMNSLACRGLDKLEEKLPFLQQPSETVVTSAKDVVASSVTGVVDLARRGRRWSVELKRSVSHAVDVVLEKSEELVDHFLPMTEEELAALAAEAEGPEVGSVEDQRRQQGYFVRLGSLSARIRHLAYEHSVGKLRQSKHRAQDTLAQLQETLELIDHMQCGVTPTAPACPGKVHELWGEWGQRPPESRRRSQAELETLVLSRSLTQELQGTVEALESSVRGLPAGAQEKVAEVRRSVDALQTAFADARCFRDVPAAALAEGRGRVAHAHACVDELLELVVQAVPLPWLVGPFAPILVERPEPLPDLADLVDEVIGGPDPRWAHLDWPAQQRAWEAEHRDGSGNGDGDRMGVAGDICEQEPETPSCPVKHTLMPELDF
Sequence (Q8WTS1 whole entry, looked up): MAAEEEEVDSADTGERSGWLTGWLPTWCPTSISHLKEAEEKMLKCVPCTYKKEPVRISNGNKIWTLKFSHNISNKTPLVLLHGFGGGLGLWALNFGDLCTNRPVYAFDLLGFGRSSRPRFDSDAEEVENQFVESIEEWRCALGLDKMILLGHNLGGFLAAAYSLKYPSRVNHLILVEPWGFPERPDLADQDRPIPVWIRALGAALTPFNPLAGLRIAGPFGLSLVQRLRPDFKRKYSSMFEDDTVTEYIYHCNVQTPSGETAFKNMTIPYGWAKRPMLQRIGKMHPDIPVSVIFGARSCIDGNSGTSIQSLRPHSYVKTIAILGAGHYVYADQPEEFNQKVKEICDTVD
Calls of active or inactive are those of the source. No rule for the calls is given here.
Your response should consist of one outcome taken from 1 (active), -1 (inactive)

CC1=CC(C)(C)Nc2ccc(OC(=O)C(C)N3C(=O)c4ccccc4C3=O)cc21 (stereo unspecified)
1
CCN(CC)CCOCCOC(=O)C1(c2ccccc2)CCCC1
1
CN(C)CCCN(C(=O)CCc1ccccc1)c1nc2ccc(Br)cc2s1
-1
CC(=O)Cc1cc(O)c2ccccc2c1OC(=O)c1ccccc1
1
CN1CCC(=C2c3ccccc3CC(=O)c3sccc32)CC1
-1

Lab note: next molecule to report on.
I would be grateful if you could indicate the recorded call for CCN(CC)CCN(CC(=O)Nc1c(C)cc(C)cc1C)C(=O)c1ccccc1 .
1

* * *

molecular target: Perilipin-5 (Homo sapiens) + 1-acylglycerol-3-phosphate O-acyltransferase ABHD5 (Homo sapiens) (UniProt Q00G26+Q8WTS1); test: blockers of ABHD5 binding to perilipin-5 – cell lysate, luminescence, proteins expressed in HEK293T, late-stage follow-up (AID 651759); settings: ABHD5-PLIN5 interaction
Calls of active or inactive are those of the source. No rule for the calls is given here.
In this exercise, the only acceptable responses are active, inactive

For orientation, consider the following solved cases.
CN(C)CCCN(C(=O)CCc1ccccc1)c1nc2ccc(Cl)cc2s1
inactive
COc1ccc(C)c2sc(N(CCN(C)C)C(=O)/C=C/c3cccs3)nc12
inactive
CCCCNC(=O)Nc1ccc2c(c1)N(C)C(=O)c1ccccc1S2
active
CC1Sc2ccc(S(=O)(=O)N3CCC(C(=O)NCc4ccc(Cl)cc4)CC3)cc2NC1=O (stereo not drawn)
active
CCN(CC)CCOc1ccc(/C(=C(/Cl)c2ccccc2)c2ccccc2)cc1
active
O=C(/C(=C/O)N=Nc1ccc(Cl)cc1)c1ccncc1
active
COc1ccc(NC(=S)N(CCCN2CCCC2)Cc2cccn2Cc2ccc(Cl)cc2)cc1Cl
inactive

Fill in: this test's call for O=C(C[n+]1cccc(CNC(=O)c2ccc(OC(F)F)cc2)c1)Nc1cccc(C(F)(F)F)c1 is ___
inactive
